The following molecules were reported with IC50 values on human PDE10A2 (Homo sapiens (Human), UniProt Q9Y233) in different studies.
Reported property: IC50 (nM)

I. CNC(=O)c1ccc(-c2nccnc2C2CN(c3ncc4ccc(Cl)cc4n3)C2)cc1F
II. COc1ccc(Cn2nc(CCc3nc4c(Cl)cc(Cl)c(C)n4n3)nc2N2CCCC2)cc1
III. COc1cc2ncnc(N3CCOC(c4ccc(Cl)cc4)C3)c2cc1OC (centres unmarked)
IV. O=C(Nc1c(C(=O)N2CCC2)ccc(F)c1F)c1nc(C2CC2)cnc1Nc1cncnc1
V. Cn1c(=O)n([C@H]2C[C@H](Nc3nc4ccccc4s3)C2)c2ccccc21
input: Going from lowest to highest recorded IC50, rank the entries listed above. Rank them, then answer with their labels in that order.
output: V, II, I, IV, III

====

pIC50: −log10 of the molar value.
For reference, the following pIC50 results for human PDE10A2 (Homo sapiens (Human)) were taken from various sources.
Reported property: pIC50

Observe how each entry below is paired with its result.
{"Molecule": "CNC(=O)c1c(NC(=O)c2nc(C3CC3)cnc2Nc2cncnc2)cnn1C(C)C", "pIC50": 7.94}
{"Molecule": "Cc1nc2cccnc2n2c(-c3cc(OCCO)ccc3Cl)nnc12", "pIC50": 5.95}
{"Molecule": "FC(F)(F)Cn1cc(-c2ccncc2)c(-c2ccc(OCc3nc4ccccc4s3)cc2)n1", "pIC50": 8.83}
{"Molecule": "COCCn1cc(-c2cccs2)nc1CCc1cn2c(C)cc(C)nc2n1", "pIC50": 6.89}
{"Molecule": "O=C(NC1CCOC1)c1ccncc1NC(=O)c1nc(C2CC2)cnc1Nc1cncnc1 (stereo not drawn)", "pIC50": 8.60}

1. CNC(=O)c1c(NC(=O)c2nc(C3CC3)ccc2Nc2cncnc2)cnn1CCC(F)(F)F
2. Cc1c(Cl)ccc2nc(CCc3nc(N4CCCC4)n(C)n3)nn12
input: Sort 1 and 2 by pIC50 descending and give the first. Your answer should be the label of the entry you select.
output: 2

P. Cn1cc(NC(=O)c2nc(C3CC3)ccc2Nc2cncnc2)c(C(=O)N2CCC2)n1
Q. Cc1nc2cc(C(F)(F)F)c(C#Cc3nc(N4CCCC4)nn3C)nn2c1C
input: Task for the reader: decide whether P or Q has the larger pIC50. Refer to your chosen entry by its label in the reply.
output: Q
(Q: 7.96, P: 7.47)

====

// merged dataset of IC50 values, system = UniProtKB Q9Y233, multiple refs
Reported property: IC50 (nM)

{"Compound": "CN(C)C(=O)c1cc(F)ccc1NC(=O)c1nc(C2CC2)cnc1Nc1cncnc1", "Reported property": "IC50", "Quantitative result": 7.8}

A. CC1CCCN(c2nnc3c(N)nccn23)C1C (single isomer, unassigned)
B. CN(C)C(=O)c1cnn(C)c1C(=O)Nc1ccn2cc(-c3ccccc3)nc2n1
input: Compare the recorded IC50 of A and B ; state which is larger. Your answer should be the label of the entry you select.
output: A

====

Collected set of IC50 measured with human PDE10A2 (Homo sapiens (Human), UniProt Q9Y233) across studies.
Reported property: IC50 (nM)

Some compounds with known IC50 results, for comparison:
{"Compound": "CCN(CCO)C(=O)c1c(NC(=O)c2nc(C3CC3)cnc2Nc2cncnc2)cnn1C", "Unit abbrev": "nM", "IC50": 118}
{"Compound": "Cn1ncc(NC(=O)c2nc(C3CC3)cnc2Nc2cncnc2)c1C(=O)NCC(O)C(F)(F)F (centres unmarked)", "Unit abbrev": "nM", "IC50": 1.7}
{"Compound": "c1cnc2sc(N[C@H]3C[C@H](n4c(C5CC5)nc5cccnc54)C3)nc2c1", "Unit abbrev": "nM", "IC50": 0.67}
{"Compound": "CC(C)(C)OC(=O)N1CCC[C@H](c2nnc3c(N)nccn23)C1", "Unit abbrev": "nM", "IC50": 3700}
{"Compound": "O=C(NC1(c2ccc(Cl)cc2F)CCOC1)c1cnn2cc(C3CC3)cnc12 (racemic)", "Unit abbrev": "nM", "IC50": 6710}

a. COc1cccc2c1Cn1cc(CCc3nc4c(C)ncc(C)n4n3)nc1-2
b. Cn1ncc(NC(=O)c2nc(C3CC3)cnc2Nc2cncnc2)c1C(=O)N1CCCO1
c. Cc1ccc(N2CCC(N3C(=O)C(C)(C)c4cccnc43)CC2)nc1
input: Arrange these 3 compounds in increasing order of IC50. Respond with the label ranking, as requested.
output: c, a, b

A. Cc1c(C(F)(F)F)nc2c(OCC(F)(F)F)cc(C#Cc3nc(N4CCCC4)nn3C)nn12
B. COc1cc2ncnc(N3CCNC(c4ccc(N(C)C)cc4)C3)c2cc1OC (centres unmarked)
C. COc1ccc(C)n2nc(CCc3nc(-c4ccccc4)nn3C)nc12
input: // smallest IC50 at index 0, largest at the end Provide the ranking by listing each label in its place in the requested order.
output: A, C, B

P. Cc1cccc2nc(CCc3nc(-c4cccs4)cn3C[C@@H](O)CN(C)C)nn12
Q. Cc1ncc(C)n2nc(CCc3nc(-c4ccsc4)nn3C)nc12
input: Parameter metric = IC50. Return the lower-valued option from P and Q . In your reply, give the label of the chosen option.
output: Q
(Q: 5.3 nM, P: 47 nM)

1. Cn1cc(NC(=O)c2nc(C3CC3)ccc2Nc2cncnc2)c(C(=O)N2CC3(COC3)C2)n1
2. CCN(C)C(=O)c1cnn(C)c1C(=O)Nc1ccc2nc(-c3ccccc3)nn2c1
3. COc1cc2ncnc(N3CCSC(c4ccccc4)C3)c2cc1OC (centres unmarked)
4. CCNC(=O)c1c(NC(=O)c2nc(C3CC3)cnc2Nc2cncnc2)cnn1C
input: Highest IC50 first, then in falling order down to the smallest. Respond with the label ranking, as requested.
output: 3, 1, 4, 2
(3: 89 nM, 1: 58 nM, 4: 3.9 nM, 2: 2.2 nM)
